- TARGET_OR_SYSTEM: human glucagon receptor (human, UniProt P47871 26-477)
- Sequence (P47871 26-477): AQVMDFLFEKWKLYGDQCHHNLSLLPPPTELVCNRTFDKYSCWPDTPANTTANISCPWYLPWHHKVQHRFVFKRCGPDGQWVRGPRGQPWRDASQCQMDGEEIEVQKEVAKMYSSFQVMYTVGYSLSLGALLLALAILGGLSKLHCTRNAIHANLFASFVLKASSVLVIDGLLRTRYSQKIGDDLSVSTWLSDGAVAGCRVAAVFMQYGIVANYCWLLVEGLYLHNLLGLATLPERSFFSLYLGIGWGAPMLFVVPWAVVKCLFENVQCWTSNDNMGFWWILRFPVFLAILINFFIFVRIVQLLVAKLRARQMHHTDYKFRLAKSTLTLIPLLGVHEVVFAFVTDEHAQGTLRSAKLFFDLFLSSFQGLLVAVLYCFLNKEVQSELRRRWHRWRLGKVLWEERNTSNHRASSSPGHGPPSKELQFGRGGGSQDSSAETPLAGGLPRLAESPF
- ASSAY_NOTES: cell-based or functional assay
Non-standard residues stand in square brackets, D forms with d. No end group written: not given here. Aib = CC(C)(N)C(=O)O
Quick rule: In vitro Activity (Relative Activity of SEQ ID NO: 1, %), from cAMP EC50 of at least 40% means y, below that means n.

Illustrative cases are given below, each with its answer.
Y[Aib]QGTFTSDYSKYLDEKCAKEFVQWLMNT (not fully specified (bridges)) [glucagon derivative of SEQ ID NO: 11] :: n
HSQGTFTSDYSKYLDCERAQDFVQWLMNT [glucagon derivative of SEQ ID NO: 3] :: n
HSQGTFTSDYSKYLDSCDAQDFVQWLMNT [glucagon derivative of SEQ ID NO: 4] :: n

Now look at this one.
Exam item: Can Y[Aib]QGTFTSDCSKYLDSRRAQDFVQWLMNT [glucagon derivative of SEQ ID NO: 43] be said to have In vitro Activity (Relative Activity of SEQ ID NO: 1, %), from cAMP EC50 at or above 40%?
Marked response: n
